Entry source: the RNAGym collection of RNA variant scans (doi:10.7554/elife.90254)

B1: LINE1-full (parent)
chain: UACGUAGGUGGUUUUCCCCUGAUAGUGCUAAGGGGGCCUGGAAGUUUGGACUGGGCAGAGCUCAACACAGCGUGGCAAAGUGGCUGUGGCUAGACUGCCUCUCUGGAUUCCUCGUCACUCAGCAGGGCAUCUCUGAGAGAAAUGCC

# Variants of: B1
# ASSAY NAME: self-cleavage, relative activity (ratio to wild type); higher = more cleavage; in vitro, sequencing; the parent is a self-cleaving ribozyme
// values below are reported self-cleavage

>  <VARIANT SPEC>
U13C C84U

>  <self-cleavage>
0.11

$$$$
>  <VARIANT SPEC>
A94U C116U

>  <self-cleavage>
0.33

$$$$
>  <VARIANT SPEC>
U20C U47C

>  <self-cleavage>
1.57

$$$$
>  <VARIANT SPEC>
U15C A107G

>  <self-cleavage>
1.14

$$$$
>  <VARIANT SPEC>
A42U U45C

>  <self-cleavage>
1.4

$$$$
>  <VARIANT SPEC>
U13C U46A

>  <self-cleavage>
1.13

$$$$
>  <VARIANT SPEC>
U15A A94U

>  <self-cleavage>
0.25

$$$$
>  <VARIANT SPEC>
U23A A138G

>  <self-cleavage>
0.76

$$$$
>  <VARIANT SPEC>
A24U A121U

>  <self-cleavage>
0.55

$$$$
>  <VARIANT SPEC>
U52C G89A

>  <self-cleavage>
0.05

$$$$
>  <VARIANT SPEC>
A2G U62A

>  <self-cleavage>
0.09

$$$$
>  <VARIANT SPEC>
G10A C95A

>  <self-cleavage>
0.03

$$$$
>  <VARIANT SPEC>
U104C U119C

>  <self-cleavage>
1.96

$$$$
>  <VARIANT SPEC>
C76A A124G

>  <self-cleavage>
0.92

$$$$
>  <VARIANT SPEC>
U23A A140G

>  <self-cleavage>
1.41

$$$$
>  <VARIANT SPEC>
G75A U143A

>  <self-cleavage>
1.53

$$$$
>  <VARIANT SPEC>
U15C G34C

>  <self-cleavage>
1.59

$$$$
>  <VARIANT SPEC>
U1C U85C

>  <self-cleavage>
0.2

$$$$
>  <VARIANT SPEC>
U5C G137A

>  <self-cleavage>
1.38

$$$$
>  <VARIANT SPEC>
U29C U132A

>  <self-cleavage>
1.47

$$$$
>  <VARIANT SPEC>
A57G U91C

>  <self-cleavage>
0.4

$$$$
>  <VARIANT SPEC>
C61G U100C

>  <self-cleavage>
0.06

$$$$
>  <VARIANT SPEC>
A2G U62C

>  <self-cleavage>
0.09

$$$$
>  <VARIANT SPEC>
A50G A107U

>  <self-cleavage>
1.24

$$$$
>  <VARIANT SPEC>
A24U U62C

>  <self-cleavage>
0.08

$$$$
>  <VARIANT SPEC>
U109C C133U

>  <self-cleavage>
1.37

$$$$
>  <VARIANT SPEC>
U47C U52A

>  <self-cleavage>
1.72

$$$$
>  <VARIANT SPEC>
G83A U119A

>  <self-cleavage>
0.85

$$$$
>  <VARIANT SPEC>
U45C U46A

>  <self-cleavage>
0.74

$$$$
>  <VARIANT SPEC>
A57G G139U

>  <self-cleavage>
0.48

$$$$
>  <VARIANT SPEC>
U109C U143G

>  <self-cleavage>
0.87

$$$$
>  <VARIANT SPEC>
U85C U130C

>  <self-cleavage>
0.23

$$$$
>  <VARIANT SPEC>
U47G U52A

>  <self-cleavage>
1.18

$$$$
>  <VARIANT SPEC>
A30G C145G

>  <self-cleavage>
0.47

$$$$
>  <VARIANT SPEC>
U13C C98U

>  <self-cleavage>
0.35

$$$$
>  <VARIANT SPEC>
C18U A142G

>  <self-cleavage>
1.27

$$$$
>  <VARIANT SPEC>
U26A U115C

>  <self-cleavage>
1.29

$$$$
>  <VARIANT SPEC>
U104A A141C

>  <self-cleavage>
0.47

$$$$
>  <VARIANT SPEC>
U87C C145G

>  <self-cleavage>
0.32

$$$$
>  <VARIANT SPEC>
U5A A140G

>  <self-cleavage>
0.88

$$$$
>  <VARIANT SPEC>
G4A U15C

>  <self-cleavage>
1.11

$$$$
>  <VARIANT SPEC>
G21A

>  <self-cleavage>
1.14

$$$$
>  <VARIANT SPEC>
A79U U102C

>  <self-cleavage>
1.04

$$$$
>  <VARIANT SPEC>
U9A C16U

>  <self-cleavage>
0.45

$$$$
>  <VARIANT SPEC>
A24G G93A

>  <self-cleavage>
0.13

$$$$
>  <VARIANT SPEC>
U39A A42G

>  <self-cleavage>
1.21

$$$$
